Assay: ST_JUDE: Cytotoxicity using luciferase to measure ATP as an indicator of the viability of human Burkitt''s lymphoma lymphoblast cells (Raji)
Type: toxicity, cell-based
pEC50: −log10 of the molar value.
Overview of recorded pEC50 for various molecules
REPORTED_PROPERTY: pEC50

>>> test_value("CCN(CC)c1ccc(/C=C/c2ccc3ccc(OC)cc3[n+]2CC)cc1")
6.31
>>> test_value("CCCCCCCn1ccc(=N)cc1")
4.97
>>> test_value("CCc1ccc(Nc2cc(C)c3ccc(O)cc3n2)cc1")
4.51
>>> test_value("C=CCn1c(=N)n(CC(O)c2ccc(Cl)c(Cl)c2)c2ccccc21 (stereo unspecified)")
4.58
>>> test_value("CCCCCCCCCC[n+]1ccccc1")
5.03
>>> test_value("C=CCN1C=CC=C/C1=C\\c1sc2ccccc2[n+]1CC")
5.55

====

Test system: Plasmodium falciparum
Test: ST_JUDE: Plasmodium falciparum K1 EC50 (uM) as measured by SYBR green dye
Assay type: functional, organism-based
REPORTED_PROPERTY: EC50 (µM)

>>> test_value("Cc1ccc(S(=O)(=O)Nc2cc(Sc3nc[nH]n3)c(O)c3ccccc23)c(C)c1")
5.53
>>> test_value("CCc1ccc(S(=O)(=O)Nc2ccc(Nc3nc(C)cc(Nc4ccc(OC)cc4)n3)cc2)cc1")
9.28
>>> test_value("Oc1ccc(Cl)cc1CN1CCN(Cc2ccccc2)CC1")
0.486
>>> test_value("CC(=O)N(C1=C(N(C)C)C(=O)c2ccccc2C1=O)c1ccc(C(=O)O)cc1")
1.9

====

Listing: EC50 of selected compounds
System: Plasmodium falciparum
Test: ST_JUDE: Plasmodium falciparum K1 EC50 (uM) as measured by SYBR green dye
Type: functional, organism-based
REPORTED_PROPERTY: EC50 (µM)

>>> test_value("O=C(CN(Cc1ccc(F)cc1)S(=O)(=O)c1ccc(Cl)cc1)Nc1ccccc1Cl")
1.46
>>> test_value("COc1ccc(NC(=O)C2c3ccccc3C(=O)N(CC(C)C)C2c2cccs2)cc1 (stereo unspecified)")
0.12
>>> test_value("CC(=O)Nc1ccc(Nc2c3ccccc3nc3ccccc23)cc1")
1.37
>>> test_value("Oc1cccnc1NC(c1ccc(Cl)cc1)c1ccc2cccnc2c1O (stereo unspecified)")
5.59
>>> test_value("COc1cccc(C2=C(C(C)=O)Sc3nncn3N2C(C)=O)c1")
3.43
>>> test_value("CC(C)c1ccc(CNCC(O)c2ccccc2)cc1 (stereo unspecified)")
0.439
>>> test_value("Cc1ccc(-c2nc3ccccc3o2)cc1NC(=O)C(Cl)(Cl)Cl")
1.7
>>> test_value("COCc1cc(CN2CCN(c3ccccc3OC)CC2)c(O)c2ncccc12")
9.06

====

Test system: Plasmodium falciparum
Test: ST_JUDE: Cytotoxicity against Plasmodium falciparum Dd2
Assay type: functional, organism-based
pEC50: −log10 of the molar value.
Reported pEC50 values follow for various compounds
REPORTED_PROPERTY: pEC50

>>> test_value("Cc1ccc(NC(=O)C2c3ccccc3C(=O)N(CC(C)C)C2c2cccs2)c(Cl)c1 (centres undefined)")
6.01
>>> test_value("CCCO/C(O)=C1\\C(C)=NC2=C(C(=O)CC(c3ccc(OC)c(OC)c3)C2)C1c1cccc(C)c1 (centres undefined)")
5.87
>>> test_value("CCc1ccc(Nc2cc(C)c3ccc(O)cc3n2)cc1")
6.11
>>> test_value("COc1ccc(NC(=O)C2c3ccccc3C(=O)N(C3CCCC3)C2c2cccs2)cc1 (centres undefined)")
5.95

====

System: Plasmodium falciparum
Assay: ST_JUDE: Cytotoxicity against Plasmodium falciparum Dd2
Format: functional, organism-based
pEC50: −log10 of the molar value.
Label TRUE when pEC50 >= 6; otherwise FALSE.

>>> cat("CCN(CC)Cc1cc(Nc2ccnc3cc(Cl)ccc23)ccc1O")
"TRUE"
>>> cat("CCc1nc2nc(C)cc(Nc3ccc(I)cc3)n2n1")
"TRUE"
>>> cat("CCOc1ccc2nc(C)cc(Nc3ccc(Cl)cc3)c2c1")
"TRUE"
>>> cat("CCCO/C(O)=C1\\C(C)=NC2=C(C(=O)CC(c3ccc(OC)c(OC)c3)C2)C1c1ccc(F)cc1 (stereo unspecified)")
"TRUE"
>>> cat("Cc1ccc2c(c1)N(CCO)/C(=C/c1sc3ccccc3[n+]1C)S2")
"TRUE"
>>> cat("CCOc1ccc(NC(=O)C2c3ccccc3C(=O)N(CC(C)C)C2c2cccs2)cc1 (stereo unspecified)")
"TRUE"
>>> cat("CCN1/C(=C/c2cccc[n+]2C)C=Cc2cc(C)ccc21")
"FALSE"
>>> cat("CCN(CC)CCCOC(=O)c1c(C)oc2cc3c(C(=O)OCCCN(CC)CC)c(C)oc3cc12")
"TRUE"
>>> cat("C#CC[n+]1ccn2c(C)ccc2c1CC")
"FALSE"
>>> cat("CCOc1cc2c(cc1OCC)C(c1cc(Cl)ccc1O)NCC2 (stereo unspecified)")
"FALSE"
>>> cat("CC(=O)N(C1=C(N(C)C)C(=O)c2ccccc2C1=O)c1ccc(F)cc1")
"TRUE"

====

Tested on: Plasmodium falciparum
Experiment: ST_JUDE: Cytotoxicity against Plasmodium falciparum D10 transfected with yeast DHOD
Type: functional, organism-based
pEC50: −log10 of the molar value.
REPORTED_PROPERTY: pEC50

>>> test_value("CCCO/C(O)=C1\\C(C)=NC2=C(C(=O)CC(c3ccc(OC)cc3)C2)C1c1ccccc1Cl (centres undefined)")
6.73
>>> test_value("CCCO/C(O)=C1\\C(C)=NC2=C(C(=O)CC(c3ccc(OC)cc3)C2)C1c1ccc([N+](=O)[O-])cc1 (centres undefined)")
5.81
>>> test_value("Cc1ccccc1/N=C1\\C=C(NS(=O)(=O)c2ccc(F)cc2)c2ccccc2C1=O")
6.79
>>> test_value("CC1=NC2=C(C(=O)CC(c3ccc(Cl)cc3)C2)C(c2ccc(F)cc2)/C1=C(\\O)OC(C)C (centres undefined)")
6.19

====

System: Plasmodium falciparum
Test: ST_JUDE: Cytotoxicity against Plasmodium falciparum D10 transfected with yeast DHOD
Format: functional, organism-based
pEC50: −log10 of the molar value.
REPORTED_PROPERTY: pEC50

>>> test_value("Cc1ccc(NC(=O)C2c3ccccc3C(=O)N(CC(C)C)C2c2cccs2)c(Cl)c1 (stereo unspecified)")
6.20
>>> test_value("C=CCn1c(=N)n(CC(O)c2ccc(Cl)c(Cl)c2)c2ccccc21 (stereo unspecified)")
5.58
>>> test_value("N=c1n(CCN2CCCCC2)c2ccccc2n1CC(O)c1ccc(Cl)c(Cl)c1 (stereo unspecified)")
5.89
>>> test_value("Cc1ccc2c(c1)S/C(=C\\c1sc3ccccc3[n+]1C)N2CCO")
6.36
>>> test_value("CC[n+]1c(/C=C/c2ccc(N(C)C)cc2)ccc2cc(OC)ccc21")
6.43
>>> test_value("CCCO/C(O)=C1\\C(C)=NC2=C(C(=O)CC(c3ccc(OC)c(OC)c3)C2)C1c1ccc(F)cc1 (stereo unspecified)")
7.24
>>> test_value("Oc1ccc(Br)cc1CN1CCN(C2CC3CCC2C3)CC1 (stereo unspecified)")
6.06
>>> test_value("CCOc1ccc2nc3cc(N)ccc3c(N)c2c1")
5.62
>>> test_value("Cc1c2[nH]c3ccccc3c2c2c([n+]1C)CC(C)(C)CC2")
5.87
>>> test_value("CCc1ccc(S(=O)(=O)NC2=C/C(=N\\c3ccccc3)C(=O)c3ccccc32)cc1")
6.43
>>> test_value("c1ccc(CCNc2ccnc3cc4ccccc4cc23)cc1")
6.00

====

Experiment: ST_JUDE: Cytotoxicity using luciferase to measure ATP as an indicator of the viability of human epithelial embryonic kidney cells (HEK293)
Type: toxicity, cell-based
Measured EC50, listed per entry.
REPORTED_PROPERTY: EC50

>>> test_value("CCOC(=O)C1=C(C)N=c2s/c(=C/c3ccccc3O)c(=O)n2C1c1ccccc1 (stereo unspecified)")
"> 36.6 µM"
>>> test_value("Oc1ccc(Br)cc1CN1CCN(Cc2ccccc2)CC1")
"> 27.1 µM"
>>> test_value("CCOC(=O)C1(Cc2ccccc2)CCN(Cc2cccc(OC)c2O)CC1")
"> 37 µM"
>>> test_value("CCOc1ccc2nc3cc(N)ccc3c(N)c2c1")
"> 32.6 µM"
>>> test_value("COCCO/C(O)=C1\\C(C)=NC2=C(C(=O)CC(c3ccc(OC)c(OC)c3)C2)C1c1ccc(F)cc1 (stereo unspecified)")
"> 42.4 µM"
>>> test_value("CC(C)(C)C(=O)N1CCN(c2ccc([N+](=O)[O-])c(NC3CC3)c2)CC1")
"> 43.4 µM"
>>> test_value("Oc1ccc(Br)cc1CN1CCN(Cc2cccc(F)c2)CC1")
"> 31.8 µM"
>>> test_value("CCCCN(CCCC)CC(O)COc1ccccc1C(=O)Nc1ccccc1 (stereo unspecified)")
"> 53.2 µM"
>>> test_value("CCOc1ccc(NC(=O)C2c3ccccc3C(=O)N(CC(C)C)C2c2cccs2)cc1 (stereo unspecified)")
"> 42.8 µM"
>>> test_value("COc1ccccc1C1CC2=NC(C)=C(C(=O)OC(C)C)C(c3ccc(Cl)cc3)C2=C(O)C1 (stereo unspecified)")
"> 29.9 µM"
>>> test_value("CC(C)(C)NC(=O)c1cn(C2CCCCC2)cc(C(=O)NC2CCN(Cc3ccccc3)C2)c1=O (stereo unspecified)")
"> 28.7 µM"
>>> test_value("CCOc1cc(C2CC(=O)NC3=C2C(=O)CC(c2ccccc2Cl)C3)cc(Cl)c1O (stereo unspecified)")
"> 43.2 µM"
>>> test_value("CN1/C(=C/c2cccc[n+]2C)Sc2ccccc21")
"> 28.3 µM"
>>> test_value("CN(C)c1cc[n+](CC(=O)c2ccc(Br)cc2)cc1")
"> 30.8 µM"
>>> test_value("CCCn1c2c(c(=N)c3c1CCC3)CCCC2")
"> 40.3 µM"
>>> test_value("COc1ccc(NC(=O)C2c3ccccc3C(=O)N(C3CCCC3)C2c2cccs2)cc1 (stereo unspecified)")
"> 40.7 µM"
>>> test_value("COc1ccc(Nc2cc(C)nc(Nc3ccc(NS(=O)(=O)c4ccc(OC)cc4)cc3)n2)cc1")
"30.6 µM"
>>> test_value("Cc1ccc(NC(=O)C2c3ccccc3C(=O)N(CC(C)C)C2c2cccs2)c(Cl)c1 (stereo unspecified)")
"> 44.1 µM"
>>> test_value("CCc1ccccc1NC(=O)C1c2ccccc2C(=O)N(CC(C)C)C1c1cccs1 (stereo unspecified)")
"> 43 µM"
>>> test_value("CCCO/C(O)=C1\\C(C)=NC2=C(C(=O)CC(c3ccc(OC)c(OC)c3)C2)C1c1ccccc1C (stereo unspecified)")
"> 41.3 µM"
>>> test_value("Fc1ccc(Nc2nc(NCc3ccccc3)c3ccccc3n2)cc1")
"16.8 µM"

Values compiled from ChEMBL document CHEMBL1154198.
